assay: protein stability index of a GFP-peptide fusion (yeast GPS) (PSI 1-4); higher = more stable; sorted into four equal gates, so the index is relative within each strain; details: pdr5∆
Threshold rule: protein stability index greater than or equal to 3 is 1 (yes); below that, 0 (no).

Solved entries:
IHTQLSEIKQQINKAQI [YJL039C/NUP192] | 0 (no)
PVKVSGTIKKIEQFAMR [POP5] | 0 (no)
DDDAVRREVQIQLQEFL [NSL1] | 1 (yes)

[Q] Has NNGDKDHLKLVSLFSNL [YIL149C/MLP2] a recorded protein stability index greater than or equal to 3?
[A] 0 (no)

[Q] Record DLKAQFQELDSKKQRNN [RPN9] ; criterion: protein stability index no lower than 3. Met?
[A] 1 (yes)

[Q] Confirm if protein stability index reported for the sequence MVPKRSTIITKAINQEL [YCS4] is 3 or above.
[A] 0 (no)

[Q] API: above_or_equal(metric=protein stability index, cutoff=3) for item ENGRRINELTLLVQKRF [RPS3]
[A] 1 (yes)

---

assay: protein stability index of a GFP-peptide fusion (yeast GPS) (PSI 1-4); higher = more stable; sorted into four equal gates, so the index is relative within each strain; conditions: pdr5∆
Short version: protein stability index at least 2 is rule met, less is rule not met.

Answered cases to consult:
QAEATEWAEENADNVEW [RPS0A] | rule not met
IGAGVPSLEVASEYIET [FAS1] | rule met
AILVPMTVNDQPIEKNG [YJR042W/NUP85] | rule not met

[Q] hey, is protein stability index for this one >= 2? LPNEAGRLEIFKIHTAK [RPT4]
[A] rule met

---

test: protein stability index of a GFP-peptide fusion (yeast GPS) (PSI 1-4); higher = more stable; sorted into four equal gates, so the index is relative within each strain; conditions: san1∆
endpoint.name: protein stability index
Write the value as a bare number.

Reference set (5 entries):
ILVPDLYHLVIMKFQSL [ECM29] | 1.12
ENSEPPALESSPVTGDN [SNF2] | 3.19
VRDVAAQDFINAYASFL [RPS19A] | 2.96
QFKSKEVEKAHPIRLYT [PRP8] | 2.71
HKVQTKLTRELEKKFPD [RPS7B] | 3.1

Just so you know, measured protein stability index for AGADRLQQGMRGAWGKP [RPL10] came out at 2.95

The value of protein stability index measured for the sequence QNSKFLKVNVTLDNPLL [YJL039C/NUP192] turned out to be 2.91

---

experiment: protein stability index of a GFP-peptide fusion (yeast GPS) (PSI 1-4); higher = more stable; sorted into four equal gates, so the index is relative within each strain; settings: san1∆
// reported protein stability index for each item listed

Example sequences with recorded protein stability index:
TGKTLLAKAVAATIGAN [RPT4] | 1.68
GYIKNNKKIYQWNKLTS [POP6] | 2.89
LDESSEQKNTAKEELNG [YIL149C/MLP2] | 3.21
KNVKHSGNIQLDEIIEI [RPL12A] | 3.15
NSDDILSLHENYPQDEI [POP1] | 2.82
TFAKSKNYSRPSTAIHT [SIR4] | 1.53

Kindly note the recorded protein stability index for SWSNGKITSPIRSVALN [RRP42] , which is 2.66

The sequence listed as VDTLHNKEGTLEQREQN [SSN2] shows protein stability index equal to 3.21

protein stability index recorded for this sequence, SNSSELEPDYQAPFSTS [MED1] , is 2.82

Measured protein stability index, AKSTPNTNPSPLKTQTK [GAL11] : 2.64

Entry under test: CESCSTVLCTPTGGKAK [RPS27B] . Its protein stability index was 2.07

// SDNVYLKLLVKLYTFLA [RPL18A] : protein stability index value = 1.67

Sample KEQADIYAKQQEQLKQM [ARP7] ; protein stability index observed: 1.78

// protein stability index lookup, sequence = GAGSIFTSHTRLRQGAA [RPL2A] , result: 3.17

The sequence listed as SANGYLNATTAMDLAQM [BRR2] shows protein stability index equal to 3.15

Sure, the documented protein stability index for SKLLVPQKNVKIQVVDR [PRE10] is 2.53

Value of protein stability index reported for the sequence ELKDLETQVEVEKNEIG [NNF1] is 2.97

Documented protein stability index of QRESQIGAAELNENARE [SNF12] : 2.93
